target: TDP-43 1-260 (NTD-RRM1-RRM2) (human, UniProt Q13148 1-260); experiment: ALPHA
Sequence (Q13148 1-260): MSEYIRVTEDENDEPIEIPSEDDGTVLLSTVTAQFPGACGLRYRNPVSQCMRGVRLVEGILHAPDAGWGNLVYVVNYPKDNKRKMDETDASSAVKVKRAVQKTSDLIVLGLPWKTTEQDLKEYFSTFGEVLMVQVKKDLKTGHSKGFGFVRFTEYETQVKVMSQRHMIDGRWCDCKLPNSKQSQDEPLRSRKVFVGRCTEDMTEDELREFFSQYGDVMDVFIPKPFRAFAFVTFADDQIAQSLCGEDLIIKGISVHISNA
Assay metric: pKd
FYI, pKd means -log10 of a concentration in mol per litre.

Problem: Tell me its pKd given UGUGUGUGUGUG (ssRNA) [(UG)6] as the entry.
Solution: 9.40
